Tested on: SK-OV-3 ovarian
Assay: NCI-60 one-dose screen, 48 h (100 = growth as untreated, 0 = no growth, -100 = all killed)
Conditions: 10 µM unless noted
Procedure: Growth inhibition of the SK-OV-3 human tumor cell line is measured as a screen for anti-cancer activity. Cells are grown in 96 well plates and exposed to the test compound for 48 hours. Compounds are tested at a single concentration, which is 10^-5 M for most compounds. The reported endpoint is percent growth (GI% or GIPRCNT), where numbers from 0 - 100% represent growth inhibition, and numbers from -100% - 0 represent cell death. For example, a value of 40 represents 60% growth inhibition. […]
About 83,000 compounds went through this panel and 20% of them were active in at least one assay; those are over-represented in the sample as a whole.
REPORTED_PROPERTY: growth (%)
Give bare numbers, in %.

>  <COMPOUND>
O=C(N=Nc1c(Cl)c(O)c2ccccc2c1O)C(=O)Nc1cccc(C(F)(F)F)c1

>  <UNITS_OF_MEASURE>
%

>  <growth>
89.6

$$$$
>  <COMPOUND>
NC(=O)Nc1ccc2ncnc(Nc3cccc(O)c3)c2c1

>  <UNITS_OF_MEASURE>
%

>  <growth>
87.5

$$$$
>  <COMPOUND>
c1ccc(C(CC2=NCCCN2)c2ccccc2)cc1

>  <UNITS_OF_MEASURE>
%

>  <growth>
95.5

$$$$

Give one value of growth per listed compound.
1. COCCCNCC(=O)Nc1c(C)cccc1C
2. Oc1ccc(Nc2ncnc3c2sc2ncccc23)cc1

Marked response:
1. 112
2. 30.3

Please give growth for each item listed below.
1. CCOP(=O)(O)OP(=O)(O)OCC
2. CCN(CC)CCCC(C)N/C(c1cccc(OC)c1)=c1\c(=O)[nH]n(-c2c3ccccc3nc3ccccc23)c(=O)\c1=C(/NC(C)CCCN(CC)CC)c1cccc(OC)c1 (stereo not given)
3. NC(N)=N/N=C\c1ccc(OCc2ccccc2)cc1
4. COc1ccc(C(=O)C(C#N)c2cc(OC)c(OC)c(OC)c2)cc1 (stereo not given)
5. COC1CC(N)C2OC(c3ccccc3)OCC2O1 (stereo not given)

Marked response:
97.3
-10.1
77.1
105
115
